target: T1, HLA-B*0702 (human); experiment: inhibition of 125I standard peptide binding to purified HLA
T1 construct: also called B7 supertype prototype molecule

BINDER | relative binding ratio
SPAFDNLYYW (also called Her2/neu.1214) [HER2/neu peptide, position 1214, 10 amino acids] | 0.0001 ratio to standard peptide
RPRFRELV (also called Her2/neu.966) [HER2/neu peptide, position 966, 8 amino acids] | 0.041 ratio to standard peptide
SPLDSTFY (also called Her2/neu.998) [HER2/neu peptide, position 998, 8 amino acids] | -0.0006 ratio to standard peptide
SPNHVKITDF (also called Her2/neu.855) [HER2/neu peptide, position 855, 10 amino acids] | 0.0016 ratio to standard peptide
